# procedureDetails: Encapsulation efficiency and mRNA quantity by Ribogreen fluorescence plate assay
# Assay type: physicochemical
# measurementParameters: LNP with mRNA payload formulated with the lipid; 16.8/4.0/2.0/1.0; Lipids:mRNA 25:1; (total RNA - unencapsulated RNA)/total RNA
# Procedure: RNA working solutions (0.134 mg/ml) were prepared in 25 mM sodium acetate buffer using DNase/RNase-free distilled water. […] For LNP characterization, size and polydispersity index (PDI) were determined by dynamic light scattering using a Zetasizer Nano ZS. […] Encapsulation efficiency (EE %) was measured using a fluorescence plate-based assay employing the Ribogreen reagent (Invitrogen) as per PNI Ribogreen assay protocol 16. […]
Use EE % to assign classes; range list: group A (below 70%), group B (70% to below 90%), group C (90% or more)

molecule="CCC1CC1CCCCSSCCOC(=O)CCN(CCCN(C)CCCN(CCC(=O)OCCSSCCCCC1CC1CC)CCC(=O)OCCSSCCCCC1CC1CC)CCC(=O)OCCSSCCCCC1CC1CC (stereo not shown)" assignedclass="group A"
molecule="CCCCCCCCC(CCC)OC(=O)OCCOC(=O)CCN(CCCN(C)CCCN(CCC(=O)OCCOC(=O)OC(CCC)CCCCCCCC)CCC(=O)OCCOC(=O)OC(CCC)CCCCCCCC)CCC(=O)OCCOC(=O)OC(CCC)CCCCCCCC (stereo not shown)" assignedclass="group C"
molecule="CCCCCCC(CCCC)COC(=O)OCCOC(=O)CCN(CCCN(CCCNC(=S)NC)CCCN(CCC(=O)OCCOC(=O)OCC(CCCC)CCCCCC)CCC(=O)OCCOC(=O)OCC(CCCC)CCCCCC)CCC(=O)OCCOC(=O)OCC(CCCC)CCCCCC (stereo not shown)" assignedclass="group C"
molecule="CCCCCCC(CCCC)COC(=O)OCCOC(=O)CCN(CCCN(CCCN(CCC(=O)OCCOC(=O)OCC(CCCC)CCCCCC)CCC(=O)OCCOC(=O)OCC(CCCC)CCCCCC)CCCN1CCN(C)CC1)CCC(=O)OCCOC(=O)OCC(CCCC)CCCCCC (stereo not shown)" assignedclass="group C"
molecule=CC(C)CCCCCCSSCCOC(=O)CCN(CCCn1ccnc1)CCC(=O)OCCSSCCCCCCC(C)C assignedclass="group B"
molecule="CCCCCCCCC(CCC)OC(=O)OCCOC(=O)CCN(CCC(=O)OCCOC(=O)OC(CCC)CCCCCCCC)CCN(C)CCN(CCC(=O)OCCOC(=O)OC(CCC)CCCCCCCC)CCC(=O)OCCOC(=O)OC(CCC)CCCCCCCC (stereo not shown)" assignedclass="group C"

Query: Assign a category based on measured EE % for CC/C=C\CCCCOC(=O)CCN(CCCN(C)CCCN(CCC(=O)OCCOC(=O)OCC(CCCC)CCCCCC)CCC(=O)OCCOC(=O)OCC(CCCC)CCCCCC)CCC(=O)OCCOC(=O)OCC(CCCC)CCCCCC (stereo not shown) and give only the class name.
Result: group A

Query: Assign a category based on measured EE % for CCCCCCC(CCCC)COC(=O)OCCOC(=O)CCN(CCCN(CCO)CCCN(CCC(=O)OCCOC(=O)OCC(CCCC)CCCCCC)CCC(=O)OCCOC(=O)OCC(CCCC)CCCCCC)CCC(=O)OCCOC(=O)OCC(CCCC)CCCCCC (stereo not shown) and give only the class name.
Result: group C

Query: Assign a category based on measured EE % for CCCCCCC(CCCC)COC(=O)NCCNC(=O)CCN(CCCN(C)CCCN(CCC(=O)OCCNC(=O)OCC(CCCC)CCCCCC)CCC(=O)OCCNC(=O)OCC(CCCC)CCCCCC)CCC(=O)NCCNC(=O)OCC(CCCC)CCCCCC (stereo not shown) and give only the class name.
Result: group C

Sourced from patent US20260285801A1
